# Subject Of Test: acetylcholine receptor
# Assay Protocol: SPR, AchR immobilised on chip, peptide at 10 uM
Measure: Binding affinity (RU)
A number alone suffices; assume RU.

Ask: Consider the binder shown here: KWYQR [5mer-560] What is its recorded Binding affinity (RU)?
Result: 59

Ask: Fill blank: measured Binding affinity (RU) of the binder RLLSK [5mer-554] is ____.
Result: 65

Ask: Can you look up the measured Binding affinity (RU) of KVVYR [5mer-583] for me?
Result: 75

Ask: Query: Binding affinity (RU); subject: KRYCK [5mer-268]
Result: 54

Ask: # Binding affinity (RU) lookup, item RRQYR [5mer-289]
Result: 87

Ask: So what does the record say about Binding affinity (RU) for KQYYK [5mer-294] ?
Result: 50

Ask: Endpoint output: Binding affinity (RU) of KVQCK [5mer-555] . Value?
Result: 71

Ask: Which value of Binding affinity (RU) has been reported for KLQQR [5mer-596] in the records?
Result: 56
